# Tested on: ZAP70
# Condition summary: concentration: 1 μM,replicates: in singlicate; n = 1;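 further: KINOMEscan kinase panel screen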
Entries and their %Inh values follow.

{"columns": ["Compound", "%Inh / %"],
 "data": [
  ["CS(=O)(=O)Nc1ccc(-c2ccnc3[nH]ccc23)cc1 [GSK993273]", 0],
  ["Cc1cccc2c(-c3ccncc3)c(-c3ccc(F)cc3)nn12.Cl [GW461487]", 5],
  ["NC(=O)c1ccc(-c2cc3ncnc(SCC(=O)O)c3s2)cc1", 0],
  ["Cl.c1ccc(Oc2ccc(Nc3ccnc4cc(-c5ccc(CN6CCNCC6)o5)ccc34)cc2)nc1 [GW567142]", 0],
  ["CC(C)c1nc(-c2cccc(NS(=O)(=O)c3ccccc3)c2)c(-c2ccnc(Nc3ccc4c(c3)CN(C)CC4)n2)s1 [GSK1649598]", 7],
  ["C[C@@H]1CCN(C(=O)N2CCCC2)C[C@@H]1N(C)c1ncnc2[nH]ccc12", 0],
  ["O=C(Nc1cccc(C(F)(F)F)c1)c1cccc(Oc2ccc3nccn3n2)c1", 15],
  ["COc1cc2c(Nc3ccc(NC(=O)c4ccccc4)cc3)ncnc2cc1OCCCN1CCOCC1 [GSK301329]", 0],
  ["COc1cc(Nc2nccc(N3CCC(NC(=O)c4cccc(C#N)c4)C3)n2)cc(OC)c1OC (stereo not drawn) [GSK1379751]", 45],
  ["Cn1ccc2ncnc(Oc3ccc(NC(=O)Nc4cccc(C(F)(F)F)c4)c(Cl)c3)c21", 0],
  ["CS(=O)c1ccc(-c2coc3ccc(-c4n[nH]c(=O)o4)cc23)cc1 (stereo not drawn)", 1],
  ["O=C1NCCc2[nH]c(-c3ccncc3)cc21", 0],
  ["COC(=O)c1cccc(NC(=O)NC2CCN(c3ccnc(NCc4ccc(F)cc4)n3)CC2)c1 [GSK1379860]", 0],
  ["O=C(Nc1cccc(Oc2ccc3nccn3n2)c1)Nc1cccc(C(F)(F)F)c1", 3],
  ["Cn1ccc2ncnc(Oc3ccc(NC(=O)Nc4cc(C(C)(C)C)on4)c(Cl)c3)c21", 0],
  ["COC(=O)c1cccc(NC(=O)NC2CCN(c3ccnc(Nc4cc(OC)c(OC)c(OC)c4)n3)C2)c1 (stereo not drawn) [GSK1379767]", 17],
  ["COc1ccc(Nc2nccc(N3CCC(NC(=O)c4cccc(C#N)c4)C3)n2)cc1 (stereo not drawn) [GSK1379730]", 0],
  ["CNC(=O)c1ccccc1Nc1nc(Nc2cccc(CS(C)(=O)=O)c2)ncc1C.O=CO [GSK1520489]", 0]
]}

====

# Test system: RIPK4
# Condition summary: concentration: 1 μM,replicates: in singlicate; n = 1
Rule: yes for %Inh not less than 20%, no for anything less.

{"columns": ["Compound", "Cat"],
 "data": [
  ["Cc1cccc2c(-c3ccncc3)c(-c3ccc(F)cc3)nn12.Cl [GW461487]", "no"],
  ["CCn1c(-c2nonc2N)nc2cncc(CNC3CCNCC3)c21.Cl [SB-747651]", "no"],
  ["Cc1ccc(Nc2ccnc(Nc3ccc4c(c3)CS(=O)(=O)C4)n2)cc1O.Cl [GW579362]", "yes"],
  ["Cc1n[nH]c2cc(Nc3ccnc(Nc4cccc(CN5CCOCC5)c4)n3)ccc12 [GW682569]", "yes"],
  ["NC(=O)c1ccc(-c2cc3ncnc(SCC(=O)O)c3s2)cc1", "no"],
  ["CN1CCN(CCNc2nc3cc(Oc4ccc(NC(=O)Nc5cc(C(F)(F)F)ccc5F)cc4)ccc3[nH]2)CC1.Cl.Cl [GW768504]", "no"],
  ["COC(=O)c1cccc(NC(=O)NC2CCN(c3ccnc(Nc4cc(OC)c(OC)c(OC)c4)n3)C2)c1 (stereo not drawn) [GSK1379767]", "yes"],
  ["CN1CCN(CCCNc2nccc(-c3c(-c4ccc(F)cc4)nn4cc(C(N)=O)ccc34)n2)CC1 [GW622475]", "yes"],
  ["Cl.Nc1n[nH]c2cc(-c3ccccn3)ccc12 [GSK2189892]", "no"]
]}

====

# Tested on: LIMK1
# Condition summary: concentration: 1 μM,replicates: in singlicate; n = 1
Entries and their %Inh values follow.

{"columns": ["Compound", "Tested on", "%Inh, %"],
 "data": [
  ["COc1cccc(OC)c1C(=O)Nc1cccc(-c2nn3ccccc3c2-c2ccnc(Nc3cccc(F)c3)n2)c1 [GSK361065]", "LIMK1", 31],
  ["Cc1cccc2c(-c3ccncc3)c(-c3ccc(F)cc3)nn12.Cl [GW461487]", "LIMK1", 0],
  ["O=c1[nH]cc(-c2ccc(O)cc2)c2sc(-c3ccncc3)cc12 [GSK1033723]", "LIMK1", 0],
  ["CCn1c(-c2nonc2N)nc2cncc(Br)c21 [SB-738004]", "LIMK1", 0],
  ["O=C(Nc1cccc(C(F)(F)F)c1)c1cccc(Oc2ccc3nccn3n2)c1", "LIMK1", 0],
  ["O=C(NOCC1CC1)c1cc(Br)c(F)c(F)c1Nc1ccc(I)cc1Cl", "LIMK1", 0]
]}

====

# System: WEE2
# Condition summary: concentration: 1 μM,replicates: in singlicate; n = 1
Recorded metric: %Inh (%)

{"columns": ["Molecule", "Value unit", "Observed result"],
 "data": [
  ["Cl.c1ccc(Oc2ccc(Nc3ccnc4cc(-c5ccc(CN6CCNCC6)o5)ccc34)cc2)nc1 [GW567142]", "%", 0],
  ["CC(=O)Nc1ccc(-c2cc3ncnc(SCC(=O)O)c3s2)cc1", "%", 4],
  ["CS(=O)(=O)c1cccc(CNc2nc(Nc3ccc4c(c3)[C@@H]3C[C@@H]4CNC3=O)ncc2C(F)(F)F)c1", "%", 30],
  ["CC(C)S(=O)(=O)N1CCN(Cc2ccc3c(c2)nc(NC(=O)c2ccsc2)n3C[C@H](O)c2ccccc2)CC1 [GW635815]", "%", 6],
  ["CS(=O)(=O)Nc1ccc(-c2ccnc3[nH]ccc23)cc1 [GSK993273]", "%", 0],
  ["O=C(Nc1cccc(Oc2ccc3nccn3n2)c1)Nc1cccc(C(F)(F)F)c1", "%", 9],
  ["O=C(Nc1cccc(C(F)(F)F)c1)c1cccc(Oc2ccc3nccn3n2)c1", "%", 7],
  ["COC(=O)c1cccc(NC(=O)NC2CCN(c3ccnc(NCc4ccc(F)cc4)n3)CC2)c1 [GSK1379860]", "%", 8]
]}

====

# Tested on: CDC2L1
# Construct: gene CDK11B
# Condition summary: concentration: 1 μM,replicates: in singlicate; n = 1

{"columns": ["Compound", "Tested on", "%Inh (%)"],
 "data": [
  ["C[C@@H]1CCN(C(=O)N2CCCC2)C[C@@H]1N(C)c1ncnc2[nH]ccc12", "CDC2L1", 3],
  ["CCNCC(Cc1ccccc1)NC(=O)c1cc(Br)c(-c2ccnc3[nH]ccc23)s1.Cl.Cl (stereo not shown)", "CDC2L1", 16],
  ["N#Cc1cccc(C(=O)NC2CCN(c3ccnc(Nc4ccc(F)cc4)n3)C2)c1 (stereo not shown)", "CDC2L1", 0],
  ["Nc1nccc(-c2ccc3c(N)n[nH]c3c2)n1", "CDC2L1", 0],
  ["Cc1ccc(CC(=O)N2CCc3cc(-c4cn(C)c5ncnc(N)c45)ccc32)cc1", "CDC2L1", 0],
  ["CC(=O)Nc1ccc(-c2cc3ncnc(SCC(=O)O)c3s2)cc1", "CDC2L1", 9],
  ["COc1ccc(Nc2nccc(N3CCC(NC(=O)c4cccc(C#N)c4)C3)n2)cc1 (stereo not shown)", "CDC2L1", 0],
  ["Cn1ccc2ncnc(Oc3ccc(NC(=O)Nc4cnn(C(C)(C)C)c4)c(Cl)c3)c21", "CDC2L1", 0],
  ["C[C@@H](Oc1cc(-n2cnc3ccc(-c4ccncc4)cc32)sc1C(N)=O)c1ccccc1Cl", "CDC2L1", 0],
  ["CSc1nccc(-c2c(-c3ccc(F)cc3)ncn2CCCN2CCOCC2)n1.Cl", "CDC2L1", 0],
  ["C[C@@H]1CNc2c(sc3ccc4nc(-c5ccc(O)cc5)ccc4c23)C(=O)N1", "CDC2L1", 0],
  ["O=C(Nc1ccccc1)c1cccc(Oc2ccc3nccn3n2)c1", "CDC2L1", 96],
  ["Cn1ccc2ncnc(Oc3ccc(NC(=O)Nc4cncc(C(F)(F)F)c4)c(Cl)c3)c21", "CDC2L1", 0],
  ["O=c1[nH]cc(-c2ccc(O)cc2)c2sc(-c3ccncc3)cc12", "CDC2L1", 0],
  ["COc1cccc(C2=C(Nc3cccc(Cl)c3)C(=O)NC2=O)c1", "CDC2L1", 0],
  ["CC(=O)c1c(-c2ccncc2)[nH]c(-c2ccncc2)c1C", "CDC2L1", 0]
]}

====

Entries and their %Inh values follow.
# System: PRKCH
# Condition summary: concentration: 1 μM,replicates: in singlicate; n = 1

{"columns": ["Substance smiles", "%Inh"],
 "data": [
  ["O=C(Nc1ccccc1)c1cccc(Oc2ccc3nccn3n2)c1", "0%"],
  ["Cn1ccc2ncnc(Oc3ccc(NC(=O)Nc4cncc(C(F)(F)F)c4)c(Cl)c3)c21", "20%"],
  ["CCN1CCN(CCCC(=O)Nc2n[nH]c3nc(-c4ccc(O)cc4)c(Br)cc23)CC1", "19%"],
  ["COC(=O)c1cccc(NC(=O)NC2CCN(c3ccnc(NCc4ccc(F)cc4)n3)CC2)c1", "32%"]
]}
